measured_on: T1, human TL1A extracellular domain with N-terminal HIS and FLAG tag (human, UniProt O95150 72-251)
T1 sequence: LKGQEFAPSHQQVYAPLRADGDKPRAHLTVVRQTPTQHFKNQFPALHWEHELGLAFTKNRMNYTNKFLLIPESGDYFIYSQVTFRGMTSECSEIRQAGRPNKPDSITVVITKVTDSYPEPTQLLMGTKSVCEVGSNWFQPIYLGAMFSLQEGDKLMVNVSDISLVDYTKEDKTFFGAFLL
protocol: cell-based or functional assay
Each item that follows carries a reported Fold improvement over 320-179, TL1A induced caspase potency assay in TF-1 cells.
Answer format: numeric, fold implied, no suffix.

Solved cases below.
>>> observed_measurement("320-267 (antibody, human IgG1, V domains shown) VH: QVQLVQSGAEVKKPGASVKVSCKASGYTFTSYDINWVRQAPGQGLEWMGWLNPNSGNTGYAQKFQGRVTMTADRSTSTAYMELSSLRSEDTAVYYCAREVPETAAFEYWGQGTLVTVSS VL: QSVLTQPPSVSGAPGQRVTISCTSSSSDIGAALGVHWYQQLPGTAPKLLIEGYYNRPSGVPDRFSGSKSGTSASLTITGLLPEDEGDYYCQSYDGTLSALFGGGTKLTVLG")
4
>>> observed_measurement("320-588 (antibody, human IgG1, name in Kabat numbering, V domains shown, full-length human IgG1, lambda) VH: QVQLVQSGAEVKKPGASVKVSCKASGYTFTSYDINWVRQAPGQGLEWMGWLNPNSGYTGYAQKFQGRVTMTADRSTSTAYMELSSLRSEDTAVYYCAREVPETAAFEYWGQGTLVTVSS VL: QSVLTQPPSVSGAPGQRVTISCTSSSSDIGAALGVHWYQQLPGTAPKLLIEGYYNRPSGVPDRFSGSKSGTSASLTITGLLPEDEGDYYCQSYDGTLSALFGGGTKLTVLG")
5

Please give the measured Fold improvement over 320-179, TL1A induced caspase potency assay in TF-1 cells for this binder: 320-613 (antibody, human IgG1, name in Kabat numbering, V domains shown, full-length human IgG1, lambda) VH: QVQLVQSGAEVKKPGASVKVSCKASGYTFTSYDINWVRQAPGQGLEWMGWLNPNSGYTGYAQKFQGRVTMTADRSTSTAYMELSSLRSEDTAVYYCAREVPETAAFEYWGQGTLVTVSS VL: QSVLTQPPSVSGAPGQRVTISCTSSSSDIGAGLGVHWYQQLPGTAPKLLIEGYYNRPSGVPDRFSGSKSGTSASLTITGLLPEDEGDYYCQSWDYTLSALFGGGTKLTVLG 4
